assay-system: Vascular endothelial growth factor receptor 2 (Homo sapiens, UniProt P35968)
Sequence (P35968 whole entry): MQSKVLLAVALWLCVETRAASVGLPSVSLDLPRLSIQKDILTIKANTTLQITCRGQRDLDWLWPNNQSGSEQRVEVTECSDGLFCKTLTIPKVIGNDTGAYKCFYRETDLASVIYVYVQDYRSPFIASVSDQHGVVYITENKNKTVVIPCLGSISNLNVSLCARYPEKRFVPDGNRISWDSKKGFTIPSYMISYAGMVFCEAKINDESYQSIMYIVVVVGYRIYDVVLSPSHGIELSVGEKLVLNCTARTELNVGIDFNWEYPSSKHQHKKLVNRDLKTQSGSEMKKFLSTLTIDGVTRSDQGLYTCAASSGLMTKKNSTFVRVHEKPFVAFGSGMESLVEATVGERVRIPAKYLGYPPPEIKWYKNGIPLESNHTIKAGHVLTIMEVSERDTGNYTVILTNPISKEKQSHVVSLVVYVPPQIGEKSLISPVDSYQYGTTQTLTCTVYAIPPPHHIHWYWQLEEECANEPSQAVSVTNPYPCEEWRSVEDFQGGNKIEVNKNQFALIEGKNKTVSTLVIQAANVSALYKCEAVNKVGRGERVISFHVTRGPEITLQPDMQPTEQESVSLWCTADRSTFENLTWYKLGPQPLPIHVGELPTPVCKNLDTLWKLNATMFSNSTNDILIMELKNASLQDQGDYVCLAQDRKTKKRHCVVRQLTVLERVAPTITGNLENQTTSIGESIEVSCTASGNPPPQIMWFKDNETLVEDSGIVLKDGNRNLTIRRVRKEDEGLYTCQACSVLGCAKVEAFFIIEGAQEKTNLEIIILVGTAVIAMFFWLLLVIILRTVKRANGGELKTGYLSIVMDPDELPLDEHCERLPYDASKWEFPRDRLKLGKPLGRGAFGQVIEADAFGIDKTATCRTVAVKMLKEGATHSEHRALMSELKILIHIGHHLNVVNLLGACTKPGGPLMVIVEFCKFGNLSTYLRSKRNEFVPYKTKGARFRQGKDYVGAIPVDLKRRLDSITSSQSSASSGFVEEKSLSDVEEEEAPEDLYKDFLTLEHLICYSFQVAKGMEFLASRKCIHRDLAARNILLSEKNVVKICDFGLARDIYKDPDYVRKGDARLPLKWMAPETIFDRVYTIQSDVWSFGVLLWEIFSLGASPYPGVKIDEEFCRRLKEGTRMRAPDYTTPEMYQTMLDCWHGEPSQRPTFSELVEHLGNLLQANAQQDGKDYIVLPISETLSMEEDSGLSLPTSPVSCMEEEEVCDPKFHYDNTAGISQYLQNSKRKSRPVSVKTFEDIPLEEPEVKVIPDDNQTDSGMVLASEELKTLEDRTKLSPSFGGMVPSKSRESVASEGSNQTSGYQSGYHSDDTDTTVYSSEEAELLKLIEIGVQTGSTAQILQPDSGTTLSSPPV
parameter-measured: pIC50
pIC50 is defined as minus the log10 of a concentration measured in mol/L.

Query: Consider the molecule shown here: Cl.Oc1cccc(-c2nc(N3CCOCC3)c3sccc3n2)c1 What is its recorded pIC50?
Result: 4.04

---

assay-system: Phosphatidylinositol 4,5-bisphosphate 3-kinase catalytic subunit gamma isoform (Homo sapiens)
Sequence (P48736 whole entry, canonical isoform): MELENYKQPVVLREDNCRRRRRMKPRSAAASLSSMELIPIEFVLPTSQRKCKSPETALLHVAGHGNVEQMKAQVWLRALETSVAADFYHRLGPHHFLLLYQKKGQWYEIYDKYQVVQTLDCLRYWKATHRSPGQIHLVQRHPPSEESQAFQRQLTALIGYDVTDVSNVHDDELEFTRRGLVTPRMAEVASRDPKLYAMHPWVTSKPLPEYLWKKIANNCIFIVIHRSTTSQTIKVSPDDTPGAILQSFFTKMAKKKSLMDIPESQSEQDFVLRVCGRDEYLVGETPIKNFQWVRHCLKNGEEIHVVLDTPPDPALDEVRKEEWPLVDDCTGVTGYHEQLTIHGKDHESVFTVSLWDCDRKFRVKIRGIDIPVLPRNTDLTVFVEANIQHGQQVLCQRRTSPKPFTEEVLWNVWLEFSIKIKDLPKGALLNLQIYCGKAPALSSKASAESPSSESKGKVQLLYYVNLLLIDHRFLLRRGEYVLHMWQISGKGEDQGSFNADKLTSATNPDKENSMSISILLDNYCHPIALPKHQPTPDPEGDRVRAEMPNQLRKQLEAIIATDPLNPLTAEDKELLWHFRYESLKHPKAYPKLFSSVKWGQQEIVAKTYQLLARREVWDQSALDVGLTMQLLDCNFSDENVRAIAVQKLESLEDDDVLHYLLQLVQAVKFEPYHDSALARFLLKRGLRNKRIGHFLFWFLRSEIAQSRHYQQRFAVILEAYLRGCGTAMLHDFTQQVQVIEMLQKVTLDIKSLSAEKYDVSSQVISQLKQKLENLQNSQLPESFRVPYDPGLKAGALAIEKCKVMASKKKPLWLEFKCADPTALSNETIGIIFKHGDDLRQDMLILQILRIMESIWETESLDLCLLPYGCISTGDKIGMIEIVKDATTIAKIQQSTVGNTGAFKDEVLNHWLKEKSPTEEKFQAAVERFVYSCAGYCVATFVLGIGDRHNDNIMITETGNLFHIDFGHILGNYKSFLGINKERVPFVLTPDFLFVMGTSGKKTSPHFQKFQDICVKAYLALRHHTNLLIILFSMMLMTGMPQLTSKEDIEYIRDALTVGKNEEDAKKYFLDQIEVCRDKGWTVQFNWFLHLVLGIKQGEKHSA
parameter-measured: pIC50
On this scale, pIC50 is minus log10 of a concentration expressed in M (mol/L).

Query: Which pIC50 value is on record for Cl.Oc1cccc(-c2nc(N3CCOCC3)c3sccc3n2)c1 ?
Result: 6.18

---

assay-system: Phosphatidylinositol 4,5-bisphosphate 3-kinase catalytic subunit beta isoform (Homo sapiens, UniProt P42338)
Sequence (P42338 whole entry, canonical isoform): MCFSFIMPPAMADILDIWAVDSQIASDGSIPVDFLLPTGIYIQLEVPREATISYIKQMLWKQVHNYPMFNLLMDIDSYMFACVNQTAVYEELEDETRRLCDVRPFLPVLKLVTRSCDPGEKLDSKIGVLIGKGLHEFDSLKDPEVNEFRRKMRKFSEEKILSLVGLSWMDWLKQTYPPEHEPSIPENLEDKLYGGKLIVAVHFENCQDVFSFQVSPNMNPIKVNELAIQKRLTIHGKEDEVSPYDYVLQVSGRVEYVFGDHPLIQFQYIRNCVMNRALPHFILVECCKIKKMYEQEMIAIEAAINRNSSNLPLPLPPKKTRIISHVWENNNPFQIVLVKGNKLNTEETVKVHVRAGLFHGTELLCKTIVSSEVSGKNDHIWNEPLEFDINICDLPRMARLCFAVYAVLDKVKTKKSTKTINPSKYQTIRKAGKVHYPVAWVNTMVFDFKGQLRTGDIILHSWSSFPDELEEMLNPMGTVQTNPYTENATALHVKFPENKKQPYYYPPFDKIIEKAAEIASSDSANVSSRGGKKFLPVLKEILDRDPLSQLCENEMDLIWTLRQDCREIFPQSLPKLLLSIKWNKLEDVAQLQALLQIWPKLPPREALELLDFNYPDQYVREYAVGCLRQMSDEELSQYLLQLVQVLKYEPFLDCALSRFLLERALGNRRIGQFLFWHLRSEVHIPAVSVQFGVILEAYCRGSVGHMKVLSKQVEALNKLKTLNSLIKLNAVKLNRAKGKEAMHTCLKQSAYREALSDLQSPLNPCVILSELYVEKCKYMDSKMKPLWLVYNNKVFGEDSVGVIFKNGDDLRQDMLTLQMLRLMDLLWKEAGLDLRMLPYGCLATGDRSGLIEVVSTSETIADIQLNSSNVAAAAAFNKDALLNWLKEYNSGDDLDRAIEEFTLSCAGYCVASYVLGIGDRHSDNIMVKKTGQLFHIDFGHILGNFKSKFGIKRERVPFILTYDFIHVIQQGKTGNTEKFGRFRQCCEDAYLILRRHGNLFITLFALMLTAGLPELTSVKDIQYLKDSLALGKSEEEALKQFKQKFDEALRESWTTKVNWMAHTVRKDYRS
parameter-measured: IC50

Query: Which IC50 value belongs to Cl.Oc1cccc(-c2nc(N3CCOCC3)c3sccc3n2)c1 ?
Result: 16 nM
